All figures here come from BindingDB's records for patent US20230312550.

biological target: UniProt Q12884; assay: hFAP Binding Assay
Sequence (Q12884 whole entry): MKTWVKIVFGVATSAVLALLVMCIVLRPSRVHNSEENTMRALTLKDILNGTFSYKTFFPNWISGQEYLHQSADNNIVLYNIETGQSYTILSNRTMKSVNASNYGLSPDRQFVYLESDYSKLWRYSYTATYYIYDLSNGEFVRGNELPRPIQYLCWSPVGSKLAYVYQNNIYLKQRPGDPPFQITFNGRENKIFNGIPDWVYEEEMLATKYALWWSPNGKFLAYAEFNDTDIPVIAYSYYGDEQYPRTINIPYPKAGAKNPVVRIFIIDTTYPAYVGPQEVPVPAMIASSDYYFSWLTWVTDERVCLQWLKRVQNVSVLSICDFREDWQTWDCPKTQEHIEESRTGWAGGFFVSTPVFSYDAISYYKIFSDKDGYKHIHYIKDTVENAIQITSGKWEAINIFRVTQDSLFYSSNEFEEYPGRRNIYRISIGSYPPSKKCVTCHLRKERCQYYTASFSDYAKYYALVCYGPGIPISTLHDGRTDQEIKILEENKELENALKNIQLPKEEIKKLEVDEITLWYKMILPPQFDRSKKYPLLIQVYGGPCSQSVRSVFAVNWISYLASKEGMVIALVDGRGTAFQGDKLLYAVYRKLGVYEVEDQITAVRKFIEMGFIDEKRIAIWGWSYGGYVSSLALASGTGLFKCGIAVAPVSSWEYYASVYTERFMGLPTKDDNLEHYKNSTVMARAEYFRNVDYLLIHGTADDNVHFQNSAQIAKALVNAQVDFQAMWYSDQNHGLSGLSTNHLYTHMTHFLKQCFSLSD
VALUE_TYPE: koff (s⁻¹)

Solved entries:
{"COMPOUND": "CN1CCC(F)(c2ccc3nccc(C(=O)NCC(=O)N4CSC[C@H]4C#N)c3c2)CC1 [US20230312550, Example 195]", "ASSAYED_TARGET": "UniProt Q12884", "koff (s⁻¹)": "6.1e-05"}
{"COMPOUND": "C[C@@H]1COC[C@H](C)N1c1cc2c(C(=O)NCC(=O)N3CSC[C@H]3C#N)ccnc2cc1Br [US20230312550, Example 100]", "ASSAYED_TARGET": "UniProt Q12884", "koff (s⁻¹)": 0.0022}
{"COMPOUND": "N#C[C@@H]1CSCN1C(=O)CNC(=O)c1ccnc2ccc(N3CC4CCCC4C3)cc12 (some centres not stated) [US20230312550, Example 53]", "ASSAYED_TARGET": "UniProt Q12884", "koff (s⁻¹)": "5e-05"}

a = CC1(C)CCN(c2ccc3nccc(C(=O)NCC(=O)N4CSC[C@H]4C#N)c3c2)CC1 [US20230312550, Example 33]
b = N#C[C@@H]1CSCN1C(=O)CNC(=O)c1ccnc2ccc(N3CCO[C@H](C(F)(F)F)C3)cc12 [US20230312550, Example 74]
input: For the pair a and b , which entry has the numerically smaller recorded koff? Answer with the label corresponding to your selection.
output: a
